In this section, each of the compounds is paired with its reported fluorescence, percent of control (lower = inhibition).
- TARGET_DESC: Cell division control protein 42 homolog (Homo sapiens) (UniProt P60953)
- Sequence (P60953 whole entry, looked up): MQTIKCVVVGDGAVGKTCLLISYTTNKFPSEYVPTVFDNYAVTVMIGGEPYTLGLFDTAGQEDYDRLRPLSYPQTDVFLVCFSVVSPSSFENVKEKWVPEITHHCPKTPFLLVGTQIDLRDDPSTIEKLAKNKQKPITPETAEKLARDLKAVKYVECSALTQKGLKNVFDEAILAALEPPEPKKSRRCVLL
- PROTOCOL_TEXT: inhibition of fluorescent GTP binding to wildtype Cdc42 – biochemical, multiplex bead flow cytometry, Bodipy-FL-GTP, dose response (AID 1334)
- CONDITION_PARAMETERS: bead-based flow cytometry, Bodipy-FL-GTP binding to GST-Cdc42; at 100 µM (top of the series) unless noted
Potency and affinity values are given separately.
EXPERIMENTAL_READOUT: fluorescence, percent of control (lower = inhibition) (%)

[
  {
    "COMPOUND": "COC(CNC(=O)C1CCCN1C(=O)OCc1ccccc1)OC (configuration not stated)",
    "READOUT_NUMBER": 46.2
  },
  {
    "COMPOUND": "COc1ccc2c3c(cccc13)C(=O)N(O)C2=O",
    "READOUT_NUMBER": 30.1
  },
  {
    "COMPOUND": "Cn1c(=O)cc(N2CCOCC2)[nH]c1=O",
    "READOUT_NUMBER": 37.4
  },
  {
    "COMPOUND": "CCOc1ccc(CCNc2ccc3nnc(-c4ccccc4)n3n2)cc1OCC",
    "READOUT_NUMBER": 40.9
  },
  {
    "COMPOUND": "COc1ccc(-c2cc(C(F)(F)F)c3c(n2)sc2c(O)cc(=O)[nH]c23)c(OC)c1",
    "READOUT_NUMBER": 38.1
  },
  {
    "COMPOUND": "CCN1/C(=C/C=C/c2oc3ccc4ccccc4c3[n+]2CC)Oc2ccc3ccccc3c21",
    "READOUT_NUMBER": 59.4
  },
  {
    "COMPOUND": "CC1CN(C(=O)c2cccc(S(=O)(=O)Nc3cc(Cl)ccc3Cl)c2)CC(C)O1 (configuration not stated)",
    "READOUT_NUMBER": 26.5
  },
  {
    "COMPOUND": "Cn1nnnc1Sc1ncnc2scc(-c3ccc(F)cc3)c12",
    "READOUT_NUMBER": 52.2
  },
  {
    "COMPOUND": "CCOc1ccccc1C1C(C(=O)OC)=C(N)OC2=C1C(=O)CCC2 (configuration not stated)",
    "READOUT_NUMBER": 90
  },
  {
    "COMPOUND": "Oc1ccc(NC(=S)N=Nc2c(O)[nH]c3ccccc23)cc1",
    "READOUT_NUMBER": 16.7
  },
  {
    "COMPOUND": "CCn1cc(C=C2C(=O)c3ccccc3C2=O)c2ccccc21",
    "READOUT_NUMBER": 40.2
  },
  {
    "COMPOUND": "Cn1cc([C@@H]2C[C@H]3CN(Cc4cccc(Cl)c4)C(=O)[C@]34CCCN24)c2ccccc21",
    "READOUT_NUMBER": 61.3
  },
  {
    "COMPOUND": "COc1c(C)cc(Br)cc1C(=O)O",
    "READOUT_NUMBER": 46.9
  },
  {
    "COMPOUND": "Cc1cc(N/N=C/c2ccc(O)cc2O)nc(-c2ccccc2O)n1",
    "READOUT_NUMBER": 40.3
  },
  {
    "COMPOUND": "CN(/N=C/c1ccc(Br)o1)C1=NS(=O)(=O)c2ccccc21",
    "READOUT_NUMBER": 32.2
  },
  {
    "COMPOUND": "CN(/N=C/c1cccnc1)C1=NS(=O)(=O)c2ccccc21",
    "READOUT_NUMBER": 36.2
  },
  {
    "COMPOUND": "O=C1OC(c2ccc(F)cc2)=C/C1=C\\c1ccc([N+](=O)[O-])o1",
    "READOUT_NUMBER": 49.1
  },
  {
    "COMPOUND": "O=[N+]([O-])c1cc(Br)c(O)c(C=Nc2ccc(N3CCOCC3)cc2)c1",
    "READOUT_NUMBER": 30.7
  },
  {
    "COMPOUND": "CCOc1cc(C2c3c(-c4ccccc4)n[nH]c3C(=O)N2c2ccc(C(=O)O)cc2)ccc1O (configuration not stated)",
    "READOUT_NUMBER": 29
  },
  {
    "COMPOUND": "COc1cc(N2CCCC2)c(OC)cc1/C=C(/C#N)c1ccc(Br)cc1",
    "READOUT_NUMBER": 104
  },
  {
    "COMPOUND": "O=C(O)c1cccnc1SCc1ccc([N+](=O)[O-])cc1",
    "READOUT_NUMBER": 71.2
  },
  {
    "COMPOUND": "COc1ccc(OCC(=O)Nc2nonc2NC(=O)COc2ccc(OC)cc2)cc1",
    "READOUT_NUMBER": 38.2
  }
]
